Molecular target: hematopoietic progenitor kinase 1 (HPK1) (Homo sapiens)
Sequence (Q92918 whole entry): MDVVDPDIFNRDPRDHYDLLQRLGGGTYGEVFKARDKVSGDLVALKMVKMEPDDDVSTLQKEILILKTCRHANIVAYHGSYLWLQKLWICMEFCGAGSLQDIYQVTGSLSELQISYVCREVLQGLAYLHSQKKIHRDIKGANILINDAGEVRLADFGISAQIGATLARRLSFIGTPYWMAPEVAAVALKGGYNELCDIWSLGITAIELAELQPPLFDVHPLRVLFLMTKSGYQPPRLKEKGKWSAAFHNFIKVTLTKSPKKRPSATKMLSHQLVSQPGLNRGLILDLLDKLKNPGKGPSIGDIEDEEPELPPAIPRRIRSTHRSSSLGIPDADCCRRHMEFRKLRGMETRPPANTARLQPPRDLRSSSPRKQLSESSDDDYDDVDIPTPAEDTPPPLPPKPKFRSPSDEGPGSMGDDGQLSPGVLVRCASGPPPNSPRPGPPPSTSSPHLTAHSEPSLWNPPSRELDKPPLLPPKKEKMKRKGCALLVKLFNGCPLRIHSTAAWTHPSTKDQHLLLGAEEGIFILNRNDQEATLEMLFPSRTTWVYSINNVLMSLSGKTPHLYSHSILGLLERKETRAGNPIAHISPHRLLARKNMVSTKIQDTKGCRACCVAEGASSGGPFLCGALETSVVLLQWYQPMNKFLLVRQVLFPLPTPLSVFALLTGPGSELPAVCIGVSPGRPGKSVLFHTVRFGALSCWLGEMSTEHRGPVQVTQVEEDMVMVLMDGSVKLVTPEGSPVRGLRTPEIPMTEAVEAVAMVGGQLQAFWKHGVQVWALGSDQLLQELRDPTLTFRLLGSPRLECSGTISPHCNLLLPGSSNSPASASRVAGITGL
Assay: radiometric [γ-33P]-ATP kinase assay (Eurofins KinaseProfiler), recombinant human HPK1, MBP substrate
measured endpoint: pIC50
To interpret pIC50, take it as minus log10 of a concentration measured in moles per litre.

Request: Suppose we examine the molecule CC(C)S(=O)(=O)c1ccccc1Nc1nc(Nc2ccc3c(c2)C(C)(C)OC3=O)ncc1Cl [KHK-6] ; what pIC50 value has been reported?
Result: 7.70
